# Assay protocol: Concentration in plasma after sustained subcutaneous administration (osmotic pump)
# Format: in vivo
# Experimental setup: rat, sc, high dosage sustained subcutaneous administration group, after the end of the behavioral experiments

{"columns": ["Compound", "concentration at 2 weeks / ng/mL"],
 "data": [
  ["O=C1c2ccccc2OC=C(Cl)N1CCCCN1CC=C(c2ccccn2)CC1", 14.3]
]}

====

# Measured target: human dopamine D3 receptors (Homo sapiens, UniProt P35462)
# Construct: expressed in transfected cells; host or cells: CHO
# Sequence (P35462 whole entry): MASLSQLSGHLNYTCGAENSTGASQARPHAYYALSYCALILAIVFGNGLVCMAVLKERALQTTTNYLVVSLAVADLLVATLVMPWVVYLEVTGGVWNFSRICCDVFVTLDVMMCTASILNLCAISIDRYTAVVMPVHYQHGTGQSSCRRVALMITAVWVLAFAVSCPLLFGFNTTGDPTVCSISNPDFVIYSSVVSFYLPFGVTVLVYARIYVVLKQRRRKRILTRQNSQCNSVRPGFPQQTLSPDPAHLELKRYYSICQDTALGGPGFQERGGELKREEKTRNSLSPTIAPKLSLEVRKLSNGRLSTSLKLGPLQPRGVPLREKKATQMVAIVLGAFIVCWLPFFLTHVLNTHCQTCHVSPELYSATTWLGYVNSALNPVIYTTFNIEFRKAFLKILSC
# Assay protocol: Binding affinity test on human dopamine D3 receptors ([3H]spiperone, CHO membranes)
# Experimental setup: Dopamine D3; read-out: Ki

{"columns": ["Compound", "Ki, nM"],
 "data": [
  ["Cl.Cl.O=c1[nH]c2cccc(C3CCCN(Cc4cncc(-c5ccc(F)cc5)c4)C3)c2o1 (centres unmarked) [dihydrochloride]", 9.07],
  ["O=C1c2ccccc2OC=C(Cl)N1CCCCN1CC=C(c2ccccn2)CC1", 42.8]
]}

====

# Measured target: human dopamine D2S receptors (Homo sapiens, UniProt P14416)
# Sequence (P14416 1-414 isoform P14416-2): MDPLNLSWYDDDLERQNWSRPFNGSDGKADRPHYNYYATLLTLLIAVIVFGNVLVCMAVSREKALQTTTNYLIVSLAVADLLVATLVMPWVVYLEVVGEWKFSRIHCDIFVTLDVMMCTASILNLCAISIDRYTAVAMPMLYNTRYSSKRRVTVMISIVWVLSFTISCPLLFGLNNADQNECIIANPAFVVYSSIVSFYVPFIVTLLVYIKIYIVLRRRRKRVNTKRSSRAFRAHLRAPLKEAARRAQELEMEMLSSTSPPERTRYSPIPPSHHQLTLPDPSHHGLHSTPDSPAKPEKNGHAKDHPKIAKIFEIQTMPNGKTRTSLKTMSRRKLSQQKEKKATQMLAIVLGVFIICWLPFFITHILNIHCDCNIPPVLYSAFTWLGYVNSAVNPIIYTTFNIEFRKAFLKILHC
# Assay protocol: Agonist/antagonist assay, [35S]GTPgammaS binding, human dopamine D2S receptors
# Experimental setup: Dopamine D2S
Here, each record is paired with measured EC50 data.

{"columns": ["Molecule", "EC50"],
 "data": [
  ["Cl.Cl.Fc1ccc(-c2cncc(CNC[C@H]3CCc4ccccc4O3)c2)cc1 [Sarizotan, dihydrochloride]", "> 500 nM"],
  ["O=C1c2ccccc2OC=C(Cl)N1CCCCN1CC=C(c2ccccn2)CC1", "> 500 nM"],
  ["Cl.Cl.O=c1[nH]c2cccc(C3CCCN(Cc4cncc(-c5ccc(F)cc5)c4)C3)c2o1 (stereo not drawn) [dihydrochloride]", "> 500 nM"]
]}

====

# Measured target: human dopamine D3 receptors (Homo sapiens)
# Construct: expressed in transfected cells; host or cells: CHO
# Assay protocol: Binding affinity test on human dopamine D3 receptors ([3H]spiperone, CHO membranes)
pKi: −log10 of the molar value.

{"columns": ["Molecule", "pKi"],
 "data": [
  ["Cl.Cl.Fc1ccc(-c2cncc(CNC[C@H]3CCc4ccccc4O3)c2)cc1 [Sarizotan, dihydrochloride]", 8.46]
]}

====

# Measured target: human dopamine D3 receptors (Homo sapiens)
# Construct: expressed in transfected cells; host or cells: CHO
# Assay protocol: Agonist/antagonist assay, [35S]GTPgammaS binding, human dopamine D3 receptors
# Format: biochemical
# Experimental setup: Dopamine D3; read-out: Agonist assay EC50
Here, each record is paired with measured EC50 data.
Property measured: EC50 (nM)

{"columns": ["Molecule", "Observed value"],
 "data": [
  ["Cl.Cl.O=c1[nH]c2cccc(C3CCCN(Cc4cncc(-c5ccc(F)cc5)c4)C3)c2o1 (centres unmarked) [dihydrochloride]", 1.4],
  ["O=C1c2ccccc2OC=C(Cl)N1CCCCN1CC=C(c2ccccn2)CC1", 2.12]
]}

====

# Measured target: human dopamine D3 receptors (Homo sapiens, UniProt P35462)
# Construct: expressed in transfected cells; host or cells: CHO
# Assay protocol: Agonist/antagonist assay, [35S]GTPgammaS binding, human dopamine D3 receptors
# Type: biochemical
pIC50: −log10 of the molar value.

{"columns": ["Compound", "pIC50"],
 "data": [
  ["Cl.Cl.Fc1ccc(-c2cncc(CNC[C@H]3CCc4ccccc4O3)c2)cc1 [Sarizotan, dihydrochloride]", 6.74]
]}

The values you see were collected from patent US20100204202A1.
